# APOE RNA (% UTC) per record follows
# System: human APOE RNA
# assay_overview: Dose-dependent inhibition of human APOE RNA in HepG2 cells, electroporation, 24 hours (Example 6)
# Assay type: cell-based
# measurement_conditions: 13 nM
Strand notation (5' to 3'): a small letter for the sugar, then the base; units joined by * are phosphorothioate-linked, units joined directly phosphodiester-linked; [ ] holds rarer units or linkages, { } end groups; capitals alone tell only the bases. [ms] = mesyl phosphoramidate linkage; e = 2'-O-(2-methoxyethyl) (MOE); k = constrained ethyl (cEt); [5mC] = 5-methylcytosine; d = 2'-deoxy (DNA)
The answer is to be given in % UTC; state only the numeric part.

Study these solved cases before continuing.
1736519: 6-10-4 MOE gapmer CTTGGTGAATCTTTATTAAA, linkages sososszzzssssssssss (e[5mC]*eTeT*eGeG*eT*dG[ms]dA[ms]dA[ms]dT*d[5mC]*dT*dT*dT*dA*dT*eT*eA*eA*eA) [compound 1736519]: 104
1736535 (e[5mC]*eT*eT*eG*eGkT*dG[ms]dA[ms]dA[ms]dT*d[5mC]*dT*dT*dT*dA[ms]dT*eT*eA*eA*eA; antisense) [Compound 1736535]: 96

Next up:
Q: Entry under review: 1736536 (e[5mC]*eT*eT*eG*kGkT*dG[ms]dA[ms]dA[ms]dT*d[5mC]*dT*dT*dT*dA[ms]dT*eT*eA*eA*eA; antisense) [Compound 1736536] . Reported APOE RNA (% UTC)?
A: 102
